The reported measurements were obtained from the supplement of paper PMC7125110.

B1: glmS ribozyme (parent)
chain: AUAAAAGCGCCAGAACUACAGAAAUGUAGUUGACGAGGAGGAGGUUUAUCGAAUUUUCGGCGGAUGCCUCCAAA

variants of: B1; experiment: self-cleavage kobs at 640 uM GlcN6P; higher = faster cleavage; RNA array; details: with glucosamine-6-phosphate
This sample holds only a part of the variants without activity.
In this section, each of the variants is paired with its reported self-cleavage kobs at 640 uM GlcN6P.
Value Kind: self-cleavage kobs at 640 uM GlcN6P

1) A33C G66C; < 1e-05 s⁻¹
2) G32A G40U A48U; < 1e-05 s⁻¹
3) A6C A39U G41C A52U; < 1e-05 s⁻¹
4) A39U U49C C68G; < 1e-05 s⁻¹
5) A12U A15G G41A C61A; < 1e-05 s⁻¹
6) G35C G60U G62C; < 1e-05 s⁻¹
7) G7U C10G A33U C34U C67G C68A; 3.4e-05 s⁻¹
8) U45A C71G; 0.000442 s⁻¹
9) G40C G66A; 0.00111 s⁻¹
10) G38A G60U; < 1e-05 s⁻¹
11) C8U G32C U47A; < 1e-05 s⁻¹
12) A36G A52U; < 1e-05 s⁻¹
13) C11A A15G; 8.86e-05 s⁻¹
14) A6C C16G G32U A33G G38U; < 1e-05 s⁻¹
